Just for reference, ChEMBL document CHEMBL1201862 is where these values come from.

tested on: SNB-75; assay: NCI tumour cell line growth inhibition, 48 h
Activity calls are given as the source filed them. Cut-off read from the data, not from the text of the source: active = GI50 up to about 1.1 µM and inactive = higher.
Your reply should match one of these outcome classes. active, inactive

Solved entries:
COc1ccccc1NC(=O)C1=C(C)NC(C)=C(C(=O)Nc2ccccc2OC)C1c1ccccc1OC	inactive
COc1cc(C2SCC(=O)N2c2ccc(Cl)c(Cl)c2)cc(OC)c1OC (stereo unspecified)	inactive
COc1ccc(/N=N/c2ccc3oc(=O)c(C(=O)Nc4ccccc4C)cc3c2)cc1	inactive
Cc1c(O)oc2ccccc2c1=O	inactive
O=C(N/N=C\c1ccccc1)Nc1cccc2ccccc12	inactive

Exercise: Which outcome was entered for the compound CCN(CC)C(=S)S [DITIOCARB SODIUM] in this test?
Solution: active
